tested on: human μ-opioid receptor (OPRM1) (Homo sapiens, UniProt P35372)
Construct: host or cells: cAMP Hunter CHO-K1 (Chinese hamster ovary) cells
Sequence (P35372 whole entry): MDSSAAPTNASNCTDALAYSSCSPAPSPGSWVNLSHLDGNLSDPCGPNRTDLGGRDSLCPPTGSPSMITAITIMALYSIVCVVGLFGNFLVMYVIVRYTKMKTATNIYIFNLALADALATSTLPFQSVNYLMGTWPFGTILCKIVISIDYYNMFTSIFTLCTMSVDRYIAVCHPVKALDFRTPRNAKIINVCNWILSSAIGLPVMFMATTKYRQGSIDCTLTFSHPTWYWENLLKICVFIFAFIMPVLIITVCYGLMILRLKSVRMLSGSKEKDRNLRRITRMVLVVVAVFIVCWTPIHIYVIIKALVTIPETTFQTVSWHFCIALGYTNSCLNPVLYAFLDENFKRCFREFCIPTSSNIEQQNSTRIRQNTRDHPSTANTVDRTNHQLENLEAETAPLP
experimental details: cell-based
particulars: MOR Agonist EC50 ± SEM
The entries below are paired with their reported EC50.

Worked examples follow.
Prompt: Specify EC50 for `N#CC[C@@H]1[C@H]2CCC[C@]1(c1cccc(O)c1)CCN2CCc1ccccc1` and stop.
Completion: > 10 µM

Prompt: Specify EC50 for `CN[C@H]1[C@@H]2CCC[C@@]1(c1cccc(O)c1)CCN2CCc1ccccc1` and stop.
Completion: > 10 µM

// next item, EC50 requested
Prompt: Specify EC50 for `N[C@H]1[C@@H]2CCC[C@@]1(c1cccc(O)c1)CCN2CCc1ccccc1` and stop.
Completion: > 10 µM

----------
The entries below are paired with their reported Emax.
tested on: UniProt P41143
Sequence (P41143 whole entry): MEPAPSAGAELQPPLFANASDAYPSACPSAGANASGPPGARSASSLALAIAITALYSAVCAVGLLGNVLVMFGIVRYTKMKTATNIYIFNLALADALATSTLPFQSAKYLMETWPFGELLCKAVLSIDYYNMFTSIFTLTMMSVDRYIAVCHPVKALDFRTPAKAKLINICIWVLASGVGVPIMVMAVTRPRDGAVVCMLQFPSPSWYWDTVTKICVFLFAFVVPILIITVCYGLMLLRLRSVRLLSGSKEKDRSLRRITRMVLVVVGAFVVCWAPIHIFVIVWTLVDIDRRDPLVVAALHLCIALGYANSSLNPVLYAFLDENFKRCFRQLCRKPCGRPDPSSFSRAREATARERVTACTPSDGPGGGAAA
experimental details: forskolin-induced cAMP accumulation assay, DOR agonist
particulars: CHO-K1, read-out: DOR Agonist %Emax ± SEM, CHO-K1 cells expressing human DOR; normalized to the forskolin control
Field format: number, assumed %, no unit text.

Prompt: Specify Emax for `N[C@H]1[C@H]2CCC[C@]1(c1cccc(O)c1)CCN2CCc1ccccc1` and stop.
Completion: 46.6

Prompt: Specify Emax for `CNC[C@H]1[C@H]2CCC[C@]1(c1cccc(O)c1)CCN2CCc1ccccc1` and stop.
Completion: 17.4

Prompt: Specify Emax for `N#CC[C@@H]1[C@@H]2CCC[C@@]1(c1cccc(O)c1)CCN2CCc1ccccc1` and stop.
Completion: 61.5

Prompt: Specify Emax for `N[C@@H]1[C@H]2CCC[C@]1(c1cccc(O)c1)CCN2CCc1ccccc1` and stop.
Completion: 39.4

Prompt: Specify Emax for `CNC[C@@H]1[C@H]2CCC[C@]1(c1cccc(O)c1)CCN2CCc1ccccc1` and stop.
Completion: 62

Prompt: Specify Emax for `N#CC[C@H]1[C@@H]2CCC[C@@]1(c1cccc(O)c1)CCN2CCc1ccccc1` and stop.
Completion: 46.8

Prompt: Specify Emax for `N#CC=C1[C@H]2CCC[C@]1(c1cccc(O)c1)CCN2CCc1ccccc1` and stop.
Completion: 69

Prompt: Specify Emax for `N#CC[C@H]1[C@H]2CCC[C@]1(c1cccc(O)c1)CCN2CCc1ccccc1` and stop.
Completion: 35
